Tested on: Escherichia coli TOP10
Experiment: shrunken log2 fold change of peptide-encoding DNA abundance (4.5 h post-induction vs induction); higher = less antimicrobial activity (less host growth inhibition)
Conditions: time post-induction: 4.5 h; library: site-saturation at positions 5, 18, 19, 20
Binary call on shrunken log2 fold change: Yes from -0.01 upward, No beneath that.

1) RRIRVRPPRLPRPRPRPCMSPRP = No
2) RRIRQRPPRLPRPRPRPNCPPRP = Yes
3) RRIRPRPPRLPRPRPRPSYLPRP = No
4) RRIRWRPPRLPRPRPRPALTPRP = Yes
5) RRIRCRPPRLPRPRPRPAPQPRP = Yes
6) RRIRVRPPRLPRPRPRPHTEPRP = No
7) RRIRTRPPRLPRPRPRPAPHPRP = Yes
8) RRIRFRPPRLPRPRPRPDFYPRP = No
9) RRIRGRPPRLPRPRPRPMTWPRP = Yes
10) RRIRWRPPRLPRPRPRPHPFPRP = No
11) RRIRARPPRLPRPRPRPDFGPRP = Yes
12) RRIRFRPPRLPRPRPRPVIQPRP = No
13) RRIRPRPPRLPRPRPRPHLAPRP = Yes
14) RRIRMRPPRLPRPRPRPDPGPRP = Yes
15) RRIRKRPPRLPRPRPRPNDDPRP = Yes
16) RRIRIRPPRLPRPRPRPGAKPRP = Yes
17) RRIRNRPPRLPRPRPRPFWSPRP = No
18) RRIRDRPPRLPRPRPRPQDPPRP = No
19) RRIRLRPPRLPRPRPRPMVFPRP = Yes
20) RRIRWRPPRLPRPRPRPYKDPRP = No
21) RRIRVRPPRLPRPRPRPFSPPRP = No
22) RRIRMRPPRLPRPRPRPFNSPRP = No
23) RRIRGRPPRLPRPRPRPDRQPRP = No
24) RRIRTRPPRLPRPRPRPRSAPRP = Yes
25) RRIRMRPPRLPRPRPRPCLFPRP = No
26) RRIRCRPPRLPRPRPRPEQQPRP = No
27) RRIRWRPPRLPRPRPRPQTYPRP = No
28) RRIRARPPRLPRPRPRPHDQPRP = Yes
29) RRIRIRPPRLPRPRPRPDANPRP = Yes
30) RRIRNRPPRLPRPRPRPMHDPRP = No
31) RRIRLRPPRLPRPRPRPQKYPRP = No
32) RRIRSRPPRLPRPRPRPVRLPRP = Yes

----------
Tested on: Escherichia coli TOP10;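 note: peptides expressed intracellularly from a pBAD plasmid library in pooled LB shake-flask culture, induced with 0.3% L-arabinose, DNA abundance read by NGS, three biological replicates, DESeq2 with apeglm shrinkage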
Assay: shrunken log2 fold change of peptide-encoding DNA abundance (4.5 h post-induction vs induction); higher = less antimicrobial activity (less host growth inhibition)
Conditions: time post-induction: 4.5 h; library: site-saturation at positions 5, 18, 19, 20
Binary call on shrunken log2 fold change: Criterion met from -0.009 upward, Criterion not met beneath that.

1. RRIRHRPPRLPRPRPRPVHQPRP = Criterion met
2. RRIRCRPPRLPRPRPRPQKDPRP = Criterion not met
3. RRIRIRPPRLPRPRPRPEEIPRP = Criterion not met
4. RRIRCRPPRLPRPRPRPEHPPRP = Criterion not met
5. RRIRWRPPRLPRPRPRPVMYPRP = Criterion not met
6. RRIRSRPPRLPRPRPRPSTRPRP = Criterion not met
7. RRIRYRPPRLPRPRPRPLGQPRP = Criterion not met
8. RRIRERPPRLPRPRPRPINHPRP = Criterion met
9. RRIRIRPPRLPRPRPRPRVPPRP = Criterion met
10. RRIRMRPPRLPRPRPRPVPVPRP = Criterion met
11. RRIRKRPPRLPRPRPRPVRPPRP = Criterion met
12. RRIRPRPPRLPRPRPRPPPCPRP = Criterion met
13. RRIRERPPRLPRPRPRPEMEPRP = Criterion not met
14. RRIRCRPPRLPRPRPRPPLFPRP = Criterion met
